# target.or.system: L-lactate dehydrogenase (Plasmodium falciparum (isolate CDC / Honduras)) (UniProt Q27743)
# Sequence (Q27743 whole entry, looked up): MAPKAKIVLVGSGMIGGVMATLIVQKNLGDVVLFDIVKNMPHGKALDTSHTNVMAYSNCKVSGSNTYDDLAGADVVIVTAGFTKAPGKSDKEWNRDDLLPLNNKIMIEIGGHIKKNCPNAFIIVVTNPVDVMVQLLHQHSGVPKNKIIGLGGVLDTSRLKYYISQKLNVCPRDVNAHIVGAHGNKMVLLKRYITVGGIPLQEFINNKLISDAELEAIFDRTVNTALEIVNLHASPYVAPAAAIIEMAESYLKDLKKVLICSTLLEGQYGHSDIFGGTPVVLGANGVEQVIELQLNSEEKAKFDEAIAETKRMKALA
# experimental.protocol: PfLDH activity inhibition – cell lysate, 3D7 strain, counter-screen for P. falciparum growth inhibition project (AID 2304);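 note: 0% = vehicle and 100% = reference inhibitor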
# condition.summary: P. falciparum 3D7 crude extract, LDH APAD/NBT absorbance; at 2 µM; hits give high values
Kindly state inhibition for each of the entries shown.
Give bare numbers, in %.

Some solved entries appear below for comparison.
| chem.smiles | unit.abbrev | inhibition |
| --- | --- | --- |
| NOCCCCOc1ccccc1 | % | -4 |
| CC(C)(C)c1ccc(CN2CCC(CNC(=O)c3cc(-c4ccccc4)nc4ccccc34)CC2)cc1 | % | -1 |
| Cc1cccc2[nH]c(-c3ccc(-c4cccc(CNCc5cccc(N)c5)c4)cc3)nc12 | % | -4 |

Give me inhibition for each of these compounds, listed below.
1. Cc1cc(NCCc2ccccc2)nc(/N=C(\N)Nc2ccc(Cl)cc2)n1
2. CN1CCN(c2ccnc3ccc(NC(=O)Nc4ccc5ccccc5c4)cc23)CC1

[4, -1]

// query inhibition value for entry `CN1CCN(CCc2ccc(N=Cc3c(=O)[nH]c4ccc5[nH]cccc5c34)cc2)CC1` 6

---

# target.or.system: L-lactate dehydrogenase (Plasmodium falciparum (isolate CDC / Honduras)) (UniProt Q27743)
# experimental.protocol: PfLDH activity inhibition – cell lysate, 3D7 strain, counter-screen for P. falciparum growth inhibition project (AID 2304);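 note: 0% = vehicle and 100% = reference inhibitor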
# condition.summary: P. falciparum 3D7 crude extract, LDH APAD/NBT absorbance; at 2 µM; hits give high values
endpoint.name: inhibition (%)
Numbers only, in %.

| compound | target.or.system | inhibition, % |
| --- | --- | --- |
| Cc1noc(-c2ccc3c(c2)CCN(CCC2CCC(NC(=O)c4cc5ccccc5[nH]4)CC2)CC3)n1 (stereo not given) | L-lactate dehydrogenase (Plasmodium falciparum (isolate CDC / Honduras)) (UniProt Q27743) | -7 |
| O=[N+]([O-])c1ccc(Nc2nc(NN=Cc3cccc(O)c3)nc(N3CCCC3)n2)cc1 | L-lactate dehydrogenase (Plasmodium falciparum (isolate CDC / Honduras)) (UniProt Q27743) | -5 |
| CC(C)CC(C)NC(=O)C1Cc2c([nH]c3ccc(F)cc23)C2(CCN(Cc3ccccc3)CC2)N1 (stereo not given) | L-lactate dehydrogenase (Plasmodium falciparum (isolate CDC / Honduras)) (UniProt Q27743) | 7 |
| CC(=O)Nc1cccc(C(=O)Nc2cccc(-c3csc(-c4nc5ccccc5[nH]4)c3)c2)c1 | L-lactate dehydrogenase (Plasmodium falciparum (isolate CDC / Honduras)) (UniProt Q27743) | 1 |

Give me inhibition for each of these compounds, listed below.
1. CN(C)CCOc1ccc(NC(=O)NC(C)(C)c2nc(-c3ccc(Cl)c(O)c3)c(-c3ccncc3)[nH]2)cc1
2. CCCNCc1ccc(-c2ccc(CN(CCOC)C(=O)CCCOCc3ccccc3)cc2)nc1
3. O=C(Nc1ccc(Cl)cc1)N[C@H]1CCN(Cc2ccc(OCCCN3CCCCC3)cc2)C1

1: 5; 2: 2; 3: -2

---

Kindly state growth inhibition for each of the entries shown.
# experimental.protocol: inhibition of 3D7 malaria parasite growth – strain 3D7 (AID 2306);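 note: 0% = DMSO wells and 100% = chloroquine plus artemisinin control wells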
# condition.summary: P. falciparum 3D7 erythrocytic growth, LDH absorbance, 72 h; at 2 µM; hits give high values
Active and inactive are the calls of the source. How the calls were made is not given here.

Some solved entries appear below for comparison.
| chem.smiles | growth inhibition |
| --- | --- |
| Cc1cccc2[nH]c(-c3cccc(-c4cccc(NC(=O)Nc5ccc(Cl)c(Cl)c5)c4)c3)nc12 | 101% (active) |
| Cc1cccc2[nH]c(-c3ccc(-c4cccc(CNCc5cccc(N)c5)c4)cc3)nc12 | 101% (active) |

// query growth inhibition value for entry `COCCNCc1cccc(-c2ccc3nccc(Nc4cc(O)ccc4C)c3c2)c1` 101% (active)
